Entry source: paper PMC12668289

target: Fluc (Photinus pyralis); assay: BL emission spectra of luciferase-luciferin reactions; type: biochemical; conditions: 100 mM HEPES pH 8.0, 25 °C
measured_property: Bioluminescence wavelength (BLλ) (nm)
Give the value in nm but do not write nm after it.

>  <molecule>
COc1cc2nc(C3=N[C@@H](C(=O)O)CS3)sc2c(OC)c1O [Compound 2d, 5′,7′-dimethoxy-D-luciferin]

>  <measurement_units>
nm

>  <Bioluminescence wavelength (BLλ)>
625

$$$$
>  <molecule>
Cc1cc2nc(C3=N[C@@H](C(=O)O)CS3)sc2cc1O [Compound 2b, 5’-methyl-D-luciferin]

>  <measurement_units>
nm

>  <Bioluminescence wavelength (BLλ)>
605

$$$$
>  <molecule>
Cc1cc(O)c(C)c2sc(C3=N[C@@H](C(=O)O)CS3)nc12 [Compound 2e, 4′,7′-dimethyl-D-LH2]

>  <measurement_units>
nm

>  <Bioluminescence wavelength (BLλ)>
636

$$$$

// next item, Bioluminescence wavelength (BLλ) requested
Name the recorded Bioluminescence wavelength (BLλ) of the molecule listed here: Cc1cc2nc(C3=N[C@@H](C(=O)O)CS3)sc2c(C)c1O [Compound 2c, 5’,7’-di-methyl-D-luciferin]
628

###

tested on: SLR; experiment: BL emission spectra of luciferase-luciferin reactions; type: biochemical, Phrixothrix hirtus; details: 100 mM HEPES pH 8.0, 25 °C
The compounds listed here are annotated with their Bioluminescence wavelength (BLλ).
Give the value in nm but do not write nm after it.

>  <compound>
Cc1cc(O)c(C)c2sc(C3=N[C@@H](C(=O)O)CS3)nc12 [Compound 2e, 4′,7′-dimethyl-D-LH2]

>  <target_or_system>
SLR

>  <measurement_units>
nm

>  <Bioluminescence wavelength (BLλ)>
644

$$$$
>  <compound>
O=C(O)[C@H]1CSC(c2nc3ccc(O)cc3s2)=N1 [Compound 2a, D-luciferin, reference compound]

>  <target_or_system>
SLR

>  <measurement_units>
nm

>  <Bioluminescence wavelength (BLλ)>
625

$$$$
>  <compound>
Cc1cc2nc(C3=N[C@@H](C(=O)O)CS3)sc2c(C)c1O [Compound 2c, 5’,7’-di-methyl-D-luciferin]

>  <target_or_system>
SLR

>  <measurement_units>
nm

>  <Bioluminescence wavelength (BLλ)>
634

$$$$
>  <compound>
Cc1c(O)c2ccccc2c2nc(C3=N[C@@H](C(=O)O)CS3)sc12 [Compound 2f, 7′-methylnaphthol-D-luciferin]

>  <target_or_system>
SLR

>  <measurement_units>
nm

>  <Bioluminescence wavelength (BLλ)>
634

$$$$

// next item, Bioluminescence wavelength (BLλ) requested
Name the recorded Bioluminescence wavelength (BLλ) of the compound listed here: Cc1cc2nc(C3=N[C@@H](C(=O)O)CS3)sc2cc1O [Compound 2b, 5’-methyl-D-luciferin]
626

###

The compounds listed here are annotated with their Relative kcat.
Target: Fluc (Photinus pyralis, UniProt P08659)
Sequence (P08659 whole entry): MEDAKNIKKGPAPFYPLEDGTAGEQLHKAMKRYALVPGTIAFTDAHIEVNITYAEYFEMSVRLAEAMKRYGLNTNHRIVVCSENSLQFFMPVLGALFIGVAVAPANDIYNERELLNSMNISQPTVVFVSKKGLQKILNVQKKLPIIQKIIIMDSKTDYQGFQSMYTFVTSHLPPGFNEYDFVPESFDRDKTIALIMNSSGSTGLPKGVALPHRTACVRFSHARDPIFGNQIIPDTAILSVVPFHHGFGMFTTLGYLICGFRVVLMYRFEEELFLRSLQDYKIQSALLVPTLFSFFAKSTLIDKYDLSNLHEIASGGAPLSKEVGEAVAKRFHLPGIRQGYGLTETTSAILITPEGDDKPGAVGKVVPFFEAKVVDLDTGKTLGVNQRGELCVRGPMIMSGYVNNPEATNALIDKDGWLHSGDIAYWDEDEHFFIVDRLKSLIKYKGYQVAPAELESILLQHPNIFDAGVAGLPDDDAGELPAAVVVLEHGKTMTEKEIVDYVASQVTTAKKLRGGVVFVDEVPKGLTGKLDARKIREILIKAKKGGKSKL
Experiment: Steady-state kinetics of luciferase reactions (luminometer)
Format: biochemical
Conditions: relative to 2a compound
Description: 1.5 Bioluminescence characterizations Reactions of luciferases, including Photinus pyralis luciferase (Fluc), Phrixothrix hirtus luciferase (SLR), Pyrearinus termitilluminans […] mM D-LH 2 analogues, 3 mM ATP, 6 mM MgCl2, and 10 µM luciferase in 0.2 ml of 100 mM HEPES-NaOH pH 8.0. The bioluminescence (BL) emission characteristics were recorded using a microplate reader in a BL mode (Thermo Scientific, Varioskan, LUX multimode). […] BL of the […]
The answer should be written as a number, with no unit following it.

Sample records with Relative kcat:
>  <smiles>
Cc1cc2nc(C3=N[C@@H](C(=O)O)CS3)sc2c(C)c1O

>  <Relative kcat>
67.8

$$$$
>  <smiles>
Cc1cc(O)c(C)c2sc(C3=N[C@@H](C(=O)O)CS3)nc12

>  <Relative kcat>
1.0

$$$$
>  <smiles>
COc1cc2nc(C3=N[C@@H](C(=O)O)CS3)sc2c(OC)c1O

>  <Relative kcat>
1.3

$$$$

// next item, Relative kcat requested
Name the recorded Relative kcat of the compound listed here: `Cc1c(O)c2ccccc2c2nc(C3=N[C@@H](C(=O)O)CS3)sc12`
0.1

###

system: SLR; test: Steady-state kinetics of luciferase reactions (luminometer); type: biochemical, Phrixothrix hirtus; conditions: relative to 2a compound
The compounds listed here are annotated with their Relative kcat.
The answer should be written as a number, with no unit following it.

>  <smiles>
COc1cc2nc(C3=N[C@@H](C(=O)O)CS3)sc2c(OC)c1O

>  <result_value>
0.8

$$$$
>  <smiles>
Cc1cc2nc(C3=N[C@@H](C(=O)O)CS3)sc2c(C)c1O

>  <result_value>
134.8

$$$$
>  <smiles>
Cc1cc(O)c(C)c2sc(C3=N[C@@H](C(=O)O)CS3)nc12

>  <result_value>
5.5

$$$$
>  <smiles>
Cc1cc2nc(C3=N[C@@H](C(=O)O)CS3)sc2cc1O

>  <result_value>
157.3

$$$$

// next item, Relative kcat requested
Name the recorded Relative kcat of the compound listed here: `Cc1c(O)c2ccccc2c2nc(C3=N[C@@H](C(=O)O)CS3)sc12`
1.1

###

target: Fluc-ApCPP complex (Photinus pyralis); test: biochemical; type: binding; conditions: ITC, Fluc-ApCCP
Sequence (P08659 whole entry, one chain of several): as the sequence (P08659 whole entry) above
measured_property: N site
The answer should be written as a number, with no unit following it.

Sample records with N site:
>  <compound>
Cc1cc2nc(C3=N[C@@H](C(=O)O)CS3)sc2c(C)c1O

>  <target_or_system>
Fluc-ApCPP complex (Photinus pyralis)

>  <result_value>
3.34

$$$$
>  <compound>
Cc1cc(O)c(C)c2sc(C3=N[C@@H](C(=O)O)CS3)nc12

>  <target_or_system>
Fluc-ApCPP complex (Photinus pyralis)

>  <result_value>
0.90

$$$$
>  <compound>
O=C(O)[C@H]1CSC(c2nc3ccc(O)cc3s2)=N1 [Compound 2a, D-luciferin, reference compound]

>  <target_or_system>
Fluc-ApCPP complex (Photinus pyralis)

>  <result_value>
0.32

$$$$

// next item, N site requested
Name the recorded N site of the compound listed here: `Cc1cc2nc(C3=N[C@@H](C(=O)O)CS3)sc2cc1O`
0.33

###

tested on: Pmluc-WT; assay: BL emission spectra of luciferase-luciferin reactions; type: biochemical, Pyrocoelia miyako; conditions: 100 mM HEPES pH 8.0, 25 °C
The molecules listed here are annotated with their Bioluminescence wavelength (BLλ).
Give the value in nm but do not write nm after it.

Sample records with Bioluminescence wavelength (BLλ):
>  <molecule>
Cc1cc2nc(C3=N[C@@H](C(=O)O)CS3)sc2c(C)c1O

>  <target_or_system>
Pmluc-WT

>  <measured_property>
Bioluminescence wavelength (BLλ)

>  <result_value>
631

$$$$
>  <molecule>
O=C(O)[C@H]1CSC(c2nc3ccc(O)cc3s2)=N1 [Compound 2a, D-luciferin, reference compound]

>  <target_or_system>
Pmluc-WT

>  <measured_property>
Bioluminescence wavelength (BLλ)

>  <result_value>
554

$$$$
>  <molecule>
Cc1cc2nc(C3=N[C@@H](C(=O)O)CS3)sc2cc1O

>  <target_or_system>
Pmluc-WT

>  <measured_property>
Bioluminescence wavelength (BLλ)

>  <result_value>
608

$$$$
>  <molecule>
COc1cc2nc(C3=N[C@@H](C(=O)O)CS3)sc2c(OC)c1O

>  <target_or_system>
Pmluc-WT

>  <measured_property>
Bioluminescence wavelength (BLλ)

>  <result_value>
582

$$$$

// next item, Bioluminescence wavelength (BLλ) requested
Name the recorded Bioluminescence wavelength (BLλ) of the molecule listed here: `Cc1cc(O)c(C)c2sc(C3=N[C@@H](C(=O)O)CS3)nc12`
637

###

The compounds listed here are annotated with their log10 of appKm.
system: SLR; experiment: Steady-state kinetics of luciferase reactions (luminometer); format: biochemical, Phrixothrix hirtus; details: pH 8.0, 25 °C
Remember, log10 of appKm, in µM.

Sample records with log10 of appKm:
>  <compound>
Cc1cc(O)c(C)c2sc(C3=N[C@@H](C(=O)O)CS3)nc12

>  <target_or_system>
SLR

>  <log10 of appKm>
0.95

$$$$
>  <compound>
Cc1c(O)c2ccccc2c2nc(C3=N[C@@H](C(=O)O)CS3)sc12

>  <target_or_system>
SLR

>  <log10 of appKm>
1.06

$$$$
>  <compound>
COc1cc2nc(C3=N[C@@H](C(=O)O)CS3)sc2c(OC)c1O

>  <target_or_system>
SLR

>  <log10 of appKm>
0.70

$$$$

Name the recorded log10 of appKm of the compound listed here: `Cc1cc2nc(C3=N[C@@H](C(=O)O)CS3)sc2c(C)c1O`
-0.30

Name the recorded log10 of appKm of the compound listed here: O=C(O)[C@H]1CSC(c2nc3ccc(O)cc3s2)=N1 [Compound 2a, D-luciferin, reference compound]
-0.30

Name the recorded log10 of appKm of the compound listed here: `Cc1cc2nc(C3=N[C@@H](C(=O)O)CS3)sc2cc1O`
-0.15
